# IC50 listing for each entry below
biological target: recombinant human Lp-PLA2 (Homo sapiens); assay: Recombinant human Lp-PLA2 assay (rhLp-PLA2, PED6 assay); format: biochemical; conditions: recombinant human Lp-PLA2, PED6 substrate; read-out: rhLp-PLA2 (PED6 assay) (pIC50) (converted)
Sequence (Q13093 22-441): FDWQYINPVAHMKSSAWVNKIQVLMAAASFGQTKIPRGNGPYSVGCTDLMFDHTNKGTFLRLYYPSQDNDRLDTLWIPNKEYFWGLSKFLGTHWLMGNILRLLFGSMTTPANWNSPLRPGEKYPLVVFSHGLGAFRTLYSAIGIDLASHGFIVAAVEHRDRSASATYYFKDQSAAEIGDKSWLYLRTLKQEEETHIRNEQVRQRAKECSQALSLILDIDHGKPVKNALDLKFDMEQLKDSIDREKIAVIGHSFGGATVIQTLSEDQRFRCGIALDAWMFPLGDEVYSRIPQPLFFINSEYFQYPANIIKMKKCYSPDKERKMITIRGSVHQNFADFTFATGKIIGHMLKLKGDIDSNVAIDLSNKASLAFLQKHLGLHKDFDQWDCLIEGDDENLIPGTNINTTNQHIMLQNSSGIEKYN
Could you give me the number in nM? Just the number is fine.

Example results:
N#Cc1cc(COc2cc3n(c(=O)n2)CCCN3C2CC2)ccc1Oc1ccc(Cl)c(C(F)(F)F)c1 :: 0.794
COc1ccc(CN2CCCn3c2cc(OCc2ccc(F)c(F)c2)nc3=O)cc1 :: 1

Write down the reported IC50 of `COc1cccc(CN2CCCn3c2cc(OCc2ccc(F)c(F)c2)nc3=O)c1` , test system: recombinant human Lp-PLA2 (Homo sapiens). 1.58

These data points were gathered from patent US9296755B2.
